target: T1, GST-hTEAD1(209-426) (human, UniProt P28347 209-426); test: SPR; GST-hTEAD1 or mTEAD4 amine-coupled to a CM5 chip (10 mM MES pH 6.4), peptides as analytes; 10 mM HEPES, 150 mM NaCl, 0.05% Tween-20, pH 7.4, 20 °C, 30 µL/min; steady-state fit, 1:1 model; conditions: both partners purified
T1 construct: A 3C protease site stands between tags and protein; also called human TEAD1; source: E. coli BL21 DE3 RIL, purified (His Trap, SEC); not shown: GST, N-terminal, kept
T1 sequence (P28347 209-426): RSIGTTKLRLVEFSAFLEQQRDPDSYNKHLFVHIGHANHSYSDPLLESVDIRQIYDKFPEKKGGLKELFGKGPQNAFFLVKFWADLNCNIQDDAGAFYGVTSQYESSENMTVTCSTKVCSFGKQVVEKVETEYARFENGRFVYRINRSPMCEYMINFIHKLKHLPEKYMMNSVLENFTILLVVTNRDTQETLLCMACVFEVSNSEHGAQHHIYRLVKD
Bridge positions count the residues as written; N and C are the ends. Ends that are not written are not given here.
measurement.type: Kd (nM)
Please reply with the bare figure in nM and do not write the unit itself.

{"binder": "Ac-SVEDHFAKALGDTWAQIKAA (lactam 3-18, macrocyclic VGL4 two-helix motif 4E with one alanine; numbers count on: mouse VGL4 as in PDB 4LN0; Synthesised on Rink amide resin: C-terminal amide surmised; source: synthetic peptide) [peptide 24 (alanine scan of 4E), acetylated]", "measurement.type": "Kd", "measured.value": 1100}

As a next step, examine the binder that follows.
Query: Please report the recorded Kd for Ac-SVEDHFAAALGDTWLQIKAA (lactam 3-18, macrocyclic VGL4 two-helix motif 4E with one alanine; numbers count on: mouse VGL4 as in PDB 4LN0; Synthesised on Rink amide resin: C-terminal amide surmised; source: synthetic peptide) [peptide 19 (alanine scan of 4E), acetylated] .
Result: 1700
